Numbers sourced from PubChem BioAssay (Tox21).

# TARGET SYSTEM: Estrogen receptor (Homo sapiens)
# PROCEDURE TEXT: qHTS assay to identify small molecule agonists of the estrogen receptor alpha (ER-alpha) signaling pathway (AID 743075);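 note: HEK293 GripTite cells with ER-alpha and UAS-driven beta-lactamase reporter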
# ASSAY CONTEXT: HEK293 ER-alpha-UAS-bla, beta-lactamase FRET ratio, 18 h; series mostly up to 70.1 µM
Calls of active or inactive are those of the source. Calls come from the whole dose curve.
Classes used: True for active, False for inactive

[
  {
    "COMPOUND": "CCCCC(O)(Cn1cncn1)c1ccc(Cl)cc1Cl (centres undefined)",
    "CLASS LABEL": "False"
  },
  {
    "COMPOUND": "C/C(=C\\c1ccccc1)[N+](=O)[O-]",
    "CLASS LABEL": "False"
  },
  {
    "COMPOUND": "CCOP(=O)(OCC)SCCSCC",
    "CLASS LABEL": "False"
  },
  {
    "COMPOUND": "N#CCC#N",
    "CLASS LABEL": "False"
  },
  {
    "COMPOUND": "CC(=O)[C@H]1CC[C@H]2[C@@H]3CC[C@H]4C[C@](C)(O)CC[C@]4(C)[C@H]3CC[C@]12C",
    "CLASS LABEL": "False"
  },
  {
    "COMPOUND": "O=S1OC[C@@H]2[C@H](CO1)[C@]1(Cl)C(Cl)=C(Cl)[C@@]2(Cl)C1(Cl)Cl (some centres undefined)",
    "CLASS LABEL": "False"
  },
  {
    "COMPOUND": "COCC(C)N(C(=O)CCl)c1c(C)csc1C (centres undefined)",
    "CLASS LABEL": "False"
  },
  {
    "COMPOUND": "O=C(CBr)c1ccccc1",
    "CLASS LABEL": "False"
  },
  {
    "COMPOUND": "C=CC(C)=O",
    "CLASS LABEL": "False"
  },
  {
    "COMPOUND": "Cc1ccccc1C(=O)Nc1cccc(OC(C)C)c1",
    "CLASS LABEL": "False"
  },
  {
    "COMPOUND": "ClC=C(Cl)Cl",
    "CLASS LABEL": "False"
  },
  {
    "COMPOUND": "CCN(C)N=O",
    "CLASS LABEL": "False"
  },
  {
    "COMPOUND": "COc1cc(Cl)c(OC)cc1Cl",
    "CLASS LABEL": "False"
  },
  {
    "COMPOUND": "NS(=O)(=O)C(F)(F)C(F)(F)C(F)(F)C(F)(F)C(F)(F)C(F)(F)C(F)(F)C(F)(F)F",
    "CLASS LABEL": "True"
  }
]

---

# TARGET SYSTEM: Cytochrome P450 1A2 (Homo sapiens)
# PROCEDURE TEXT: Cytochrome P450 Family 1 Subfamily A Member 2 (CYP1A2) small molecule antagonists: luciferase reporter qHTS assay (AID 1671199); note: nearly all actives have a fitted effect of over 50% in size; note: potency is the fitted concentration of half-maximal effect
# ASSAY CONTEXT: P450-Glo CYP1A2 enzyme, luciferin luminescence, 1 h; series mostly up to 115 µM
Records with an inconclusive call do not appear. The source made the active and inactive calls. Calls follow the shape of the dose curve; as a rule, active = well fitted inhibition curve with a large enough effect in the repeat runs; inconclusive = weak or mixed curves; inactive = no such curve, though single readings can be large or run the other way.

[
  {
    "COMPOUND": "CC1Sc2c(C(=O)O)c(=O)c3cc(F)c(N4CCNCC4)cc3n21 (centres undefined)",
    "Potency": "inactive"
  },
  {
    "COMPOUND": "CCCC(Cn1cncn1)c1ccc(Cl)cc1Cl (centres undefined)",
    "Potency": "22.4 µM (active)"
  },
  {
    "COMPOUND": "Cn1cc[n+](C)c1 (tested in a mixture with another compound)",
    "Potency": "inactive"
  },
  {
    "COMPOUND": "O=C(O)C(F)(F)C(F)(F)C(F)(F)C(F)(F)C(F)(F)C(F)(F)C(F)(F)C(F)(F)C(F)(F)C(F)(F)F",
    "Potency": "inactive"
  },
  {
    "COMPOUND": "CN1C(=O)NC(=O)C(C)(C2=CCCCC2)C1=O (centres undefined)",
    "Potency": "inactive"
  },
  {
    "COMPOUND": "NC(=O)CI",
    "Potency": "35.9 µM (active)"
  },
  {
    "COMPOUND": "ClC=C(Cl)Cl",
    "Potency": "inactive"
  },
  {
    "COMPOUND": "COc1c(C(C)(C)C)cc([N+](=O)[O-])c(C)c1[N+](=O)[O-]",
    "Potency": "1.77 µM (active)"
  },
  {
    "COMPOUND": "COc1nn(C(=O)NS(=O)(=O)c2ccccc2OC(F)(F)F)c(=O)n1C",
    "Potency": "inactive"
  },
  {
    "COMPOUND": "O=C1C(=O)c2cccc3cccc1c23",
    "Potency": "8.93 µM (active)"
  },
  {
    "COMPOUND": "O=C1NCN(c2ccccc2)C12CCN(CCCOc1ccc(F)cc1)CC2",
    "Potency": "inactive"
  },
  {
    "COMPOUND": "COC(=O)C(Cl)C(=O)OC",
    "Potency": "inactive"
  },
  {
    "COMPOUND": "O=C(CBr)c1ccccc1",
    "Potency": "63.7 µM (active)"
  },
  {
    "COMPOUND": "O=C(OC1CCCCC1)c1ccccc1C(=O)OC1CCCCC1",
    "Potency": "37.5 µM (active)"
  },
  {
    "COMPOUND": "O=C(O)c1ccccc1C(=O)Nc1cccc2ccccc12",
    "Potency": "12.6 µM (active)"
  },
  {
    "COMPOUND": "c1cc2ccc3cccc4ccc(c1)c2c34",
    "Potency": "0.564 µM (active)"
  },
  {
    "COMPOUND": "NS(=O)(=O)C(F)(F)C(F)(F)C(F)(F)C(F)(F)C(F)(F)C(F)(F)C(F)(F)C(F)(F)F",
    "Potency": "inactive"
  },
  {
    "COMPOUND": "Sc1ccccc1Cl",
    "Potency": "inactive"
  },
  {
    "COMPOUND": "CO/N=C(/C(=O)OC)c1ccccc1COc1ccccc1C",
    "Potency": "20 µM (active)"
  },
  {
    "COMPOUND": "NNC(=O)c1cccnc1",
    "Potency": "12.7 µM (active)"
  },
  {
    "COMPOUND": "CCCCC(O)(Cn1cncn1)c1ccc(Cl)cc1Cl (centres undefined)",
    "Potency": "35.6 µM (active)"
  },
  {
    "COMPOUND": "CO/C=C(/C(=O)OC)c1ccccc1COc1cccc(C(F)(F)F)n1",
    "Potency": "35.5 µM (active)"
  },
  {
    "COMPOUND": "COc1nn(CSP(=S)(OC)OC)c(=O)s1",
    "Potency": "7.96 µM (active)"
  },
  {
    "COMPOUND": "CCCCNP(N)(N)=S",
    "Potency": "inactive"
  },
  {
    "COMPOUND": "O=C1C(Cl)C(CCl)CN1c1cccc(C(F)(F)F)c1 (centres undefined)",
    "Potency": "1 µM (active)"
  },
  {
    "COMPOUND": "O=S(=O)(Cl)c1ccccc1",
    "Potency": "inactive"
  },
  {
    "COMPOUND": "O=C(Nc1ccccc1)Nc1cnns1",
    "Potency": "3.56 µM (active)"
  },
  {
    "COMPOUND": "CC(C)N(C(=O)COc1nnc(C(F)(F)F)s1)c1ccc(F)cc1",
    "Potency": "39.9 µM (active)"
  },
  {
    "COMPOUND": "CN(C)c1ccc(N(C)C)cc1",
    "Potency": "40 µM (active)"
  }
]

---

# PROCEDURE TEXT: A CellTox Green Cytotoxicity Assay to monitor cytotoxicity in HEK293 cells - 40 hour (AID 1224871); note: nearly all actives have a fitted effect of over 45% in size; note: potency is the fitted concentration of half-maximal effect
# ASSAY CONTEXT: CellTox Green fluorescence; series mostly up to 76.8 µM
Results filed as inconclusive are left out. Activity calls are given as the source filed them. The call rests on the fitted dose curve; in most records, active means well fitted activation curve with a large enough effect in the repeat runs; inconclusive means weak or mixed curves; inactive means flat fitted curve, though single readings scatter.

[
  {
    "COMPOUND": "O=C1CN=C(c2ccccc2)c2cc(Cl)ccc2N1CC1CC1",
    "Potency": "inactive"
  },
  {
    "COMPOUND": "NCCCNCCCN",
    "Potency": "62.6 µM (active)"
  },
  {
    "COMPOUND": "COc1cc(CC(C)N)cc2c1OCO2 (stereo not drawn)",
    "Potency": "inactive"
  },
  {
    "COMPOUND": "IC(I)=C(I)I",
    "Potency": "54.9 µM (active)"
  },
  {
    "COMPOUND": "C=COC(C)=O",
    "Potency": "inactive"
  },
  {
    "COMPOUND": "ClCc1cccc(Cl)c1",
    "Potency": "inactive"
  },
  {
    "COMPOUND": "CC(C)N(CCC(C(N)=O)(c1ccccc1)c1ccccn1)C(C)C (stereo not drawn)",
    "Potency": "inactive"
  },
  {
    "COMPOUND": "CC(C)=CCOc1c2occc2cc2ccc(=O)oc12",
    "Potency": "inactive"
  }
]
